# credit: BigSolDB 2.1

# STUDY_CONDITIONS: in ethyl acetate, 288.15 K
QUANTITY: solubility (mole fraction)

What value of measured solubility (mole fraction) is listed for `CCOc1ccc(OCC)cc1` ?
0.113

----------
# STUDY_CONDITIONS: in methanol, 288.15 K
QUANTITY: solubility (mole fraction)
Lab note: record just the number, no unit beside it.

What value of measured solubility (mole fraction) is listed for `CCOc1ccc(OCC)cc1` ?
0.00473

----------
# STUDY_CONDITIONS: in acetone, 283.15 K
QUANTITY: solubility (mole fraction)

What value of measured solubility (mole fraction) is listed for `CCOc1ccc(OCC)cc1` ?
0.0679
